- Protocol Text: physchem
- Assay Context: water
Overview of reported solubility across a group of compounds:
Hi! Could you send only the number? It should be in µg/mL, unit omitted.

As a guide, the following entries are already answered.
>  <Compound>
CC(C)C#CCNC(=O)n1cnc2c(N3CC3C(F)(F)F)cccc21 (stereo not shown)

>  <Unit Label>
µg/mL

>  <solubility>
1

$$$$
>  <Compound>
CC(C)CCNC(=O)n1cnc2c(N3CC3C(F)(F)F)cccc21 (stereo not shown)

>  <Unit Label>
µg/mL

>  <solubility>
2

$$$$
>  <Compound>
O=C(NCCCc1ccccc1)n1cnc2c(N3CC3C(F)(F)F)cccc21 (stereo not shown)

>  <Unit Label>
µg/mL

>  <solubility>
1

$$$$

--- query ---
GET /values?readout=solubility&item= O=C(NCCCc1ccccc1)n1cnc2c(N3CC3F)cccc21 (stereo not shown)
17

====

- Protocol Text: Compound solubility in water
Overview of reported solubility across a group of compounds:
Hi! Could you send only the number? It should be in µg/mL, unit omitted.

GET /values?readout=solubility&item= "CC(C)CCNC(=O)n1c(OCCN(C)C)nc2ccccc21"
21

Another compound: "CC(C)CCNC(=O)n1cnc2c(N3CC(C)(C#N)C3)cccc21"
1

Another compound: "CN(C)CCOc1nc2ccccc2n1C(=O)NCCc1ccccc1"
27.6

====

- Protocol Text: Compound solubility in water
Assay Readout: solubility (µg/mL)
Hi! Could you send only the number? It should be in µg/mL, unit omitted.

As a guide, the following entries are already answered.
>  <Molecule>
O=C(NCCc1ccccc1)n1c(OC2CC2)nc2ccccc21 [Example 34]

>  <solubility [µg/mL]>
0.5

$$$$
>  <Molecule>
COc1nc2cccnc2n1C(=O)NCCCCn1ccc(C(C)(C)C)n1 [Example 135a]

>  <solubility [µg/mL]>
15

$$$$
>  <Molecule>
CN1CC(N2CCN(c3cccc4c3ncn4C(=O)NCC#Cc3ccccc3)CC2)C1 [Example 333]

>  <solubility [µg/mL]>
26

$$$$

GET /values?readout=solubility&item= CN1CCN(c2cccc3c2ncn3C(=O)NCCC#Cc2ccccc2)CC1 [Example 352]
2

Another molecule: CC(C)CCNC(=O)n1c(=O)n(C)c2cccnc21 [Example 104]
17

Another molecule: CC(C)C#CCNC(=O)n1cnc2c(N3CC4(CCN4C)C3)cccc21 [Example 359]
23

Another molecule: COc1nc2ncccc2n1C(=O)NCCCCc1ccccc1 [Example 61]
1

Another molecule: COc1nc2ccc(N3[C@@H]4CC[C@H]3COC4)cc2n1C(=O)NCCCc1ccccc1 [Example 237b]
5

Another molecule: CCOc1nc2ncccc2n1C(=O)NCCC(C)C [Example 114]
16.8

Another molecule: CN1CC(N2CCN(c3cccc4c3ncn4C(=O)NCCc3ccccc3)CC2)C1 [Example 325]
32

====

- Test Target: acid ceramidase (Homo sapiens)
- Construct: Cell lysates overexpressing acid ceramidase were used as the enzyme source; expressed in transfected cells
- Sequence (Q13510 22-395): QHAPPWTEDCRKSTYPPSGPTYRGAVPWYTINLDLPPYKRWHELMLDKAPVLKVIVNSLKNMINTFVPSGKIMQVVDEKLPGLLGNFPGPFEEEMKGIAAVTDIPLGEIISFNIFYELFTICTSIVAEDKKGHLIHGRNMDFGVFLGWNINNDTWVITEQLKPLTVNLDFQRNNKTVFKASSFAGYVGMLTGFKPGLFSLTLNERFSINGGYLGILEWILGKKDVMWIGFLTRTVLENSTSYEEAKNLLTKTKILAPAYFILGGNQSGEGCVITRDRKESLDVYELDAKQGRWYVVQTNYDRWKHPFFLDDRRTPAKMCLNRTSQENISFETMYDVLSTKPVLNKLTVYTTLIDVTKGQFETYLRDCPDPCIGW
- Protocol Text: Acid ceramidase inhibition, biochemical fluorescent assay with cell lysates overexpressing acid ceramidase, substrate Rbm14-12
- Assay Context: substrate Rbm14-12 6.3 μM, pH 4.5
Assay Readout: IC50

As a guide, the following entries are already answered.
>  <Molecule>
COc1nc2ccc(N3CCOCC3)cc2n1C(=O)NCCCCn1ccc(C(C)(C)C)n1 [Example 188b]

>  <Endpoint Result>
0.2 to 1 µM

$$$$
>  <Molecule>
CN1CCN(c2cccc3c2ncn3C(=O)NCCCC2(C(F)(F)F)CC2)CC1

>  <Endpoint Result>
< 0.2 µM

$$$$

Lab note: need IC50 with acid ceramidase (Homo sapiens) for entry "C[C@@H]1CN(c2cccc3c2ncn3C(=O)NCCCc2ccccc2)C[C@H](C)O1" , please look it up.
< 0.2 µM

Another molecule: "CN1CCN(c2cccc3c2ncn3C(=O)NCCc2ccccc2)CC1"
0.2 to 1 µM
